- Test system: Saccharomyces cerevisiae BY4741 SeMeCo community
- assayComment: z-score of subpopulation abundance vs DMSO median, subpopulation auxotrophic for HL; higher = larger share of this subpopulation than in DMSO controls
- conditionDescription: 10 µM; 24 h; SM minimal medium; subpopulation (auxotrophy): HL
Where a name gives a salt, the structure may show the parent alone.
metricName: z-score of subpopulation abundance
Form field (numeric): enter value without unit.

Some compounds with recorded z-score of subpopulation abundance:
# compound, metricName, measuredResult
data = [
    ("OC(c1cc(C(F)(F)F)nc2c(C(F)(F)F)cccc12)C1CCCCN1 (centres undefined) [Mefloquine HCl]", "z-score of subpopulation abundance", 0.36),
    ("Cc1ccc2c(Cl)cc(Cl)c(O)c2n1", "z-score of subpopulation abundance", 19.8),
    ("O=C(O)c1ccccc1O", "z-score of subpopulation abundance", -0.19),
    ("CCN(CC)CC#CCOC(=O)C(O)(c1ccccc1)C1CCCCC1 (centres undefined) [Oxybutynin chloride]", "z-score of subpopulation abundance", -0.93),
    ("O=C(O)c1cc(-c2ccc(F)cc2F)ccc1O", "z-score of subpopulation abundance", -0.87),
]

Quick one: z-score of subpopulation abundance of NC[C@H]1O[C@H](O[C@H]2[C@H](O[C@@H]3O[C@H](CO)[C@@H](O)[C@H]3O)[C@@H](O)[C@H](N)C[C@@H]2N)[C@H](N)[C@@H](O)[C@@H]1O [Ribostamycin Sulfate] ?
-0.49

Quick one: z-score of subpopulation abundance of Fc1ccc([C@@H]2CCNC[C@H]2COc2ccc3c(c2)OCO3)cc1 [Paroxetine HCl] ?
0.14

Quick one: z-score of subpopulation abundance of CN1[C@@H]2CC[C@H]1C[C@@H](OC(=O)c1c[nH]c3ccccc13)C2 [Tropisetron HCl] ?
-0.91

Quick one: z-score of subpopulation abundance of CC#C[C@]1(O)CC[C@H]2[C@@H]3CCC4=CC(=O)CCC4=C3[C@@H](c3ccc(N(C)C)cc3)C[C@@]21C ?
1.2
